Catalogue of MIC values
System: Acinetobacter baumannii
Assay: Antibacterial activity against Acinetobacter baumannii assessed as inhibition of bacterial growth
Assay type: functional
Quick note: give the figure in µg/mL, leave out the unit.

Some molecules with recorded MIC:
{"columns": ["itemSmiles", "observed"],
 "data": [
  ["Cc1cc(=O)oc2cc(/N=C3/S/C(=C\\c4ccc(Cl)cc4)C(=O)N3CCO)ccc12", 32],
  ["Cc1cc(=O)oc2cc(/N=C3/S/C(=C\\c4c[nH]c5ccccc45)C(=O)N3CCO)ccc12", 0.25],
  ["Cc1cc(=O)oc2cc(/N=C3/S/C(=C\\c4ccco4)C(=O)N3CCO)ccc12", 1],
  ["COc1ccc(/C=C2\\S/C(=N/c3ccc4c(C)cc(=O)oc4c3)N(CCO)C2=O)cc1", 8],
  ["Cc1cc(=O)oc2cc(/N=C3/S/C(=C\\c4ccccc4F)C(=O)N3CCO)ccc12", 16]
]}

Form field: reported MIC of `Cc1cc(=O)oc2cc(/N=C3/S/C(=C\c4ccc[nH]4)C(=O)N3CCO)ccc12`
4

// returns reported MIC for input `Cc1cc(=O)oc2cc(/N=C3/S/C(=C\c4c[nH]c5cc(Cl)ccc45)C(=O)N3CCO)ccc12`
4

Fill in: MIC of `Cc1cc(=O)oc2cc(/N=C3/S/C(=C\c4cccc(Cl)c4)C(=O)N3CCO)ccc12` is ___
4

I'd like to know its MIC. The molecule in question is `Cc1cc(=O)oc2cc(/N=C3/S/C(=C\c4ccccc4)C(=O)N3CCO)ccc12`
1

// MIC lookup, key: `CCn1cc(C(=O)O)c(=O)c2cc(F)c(N3CCNCC3)cc21`
4

Recorded MIC of `Cc1ccc(/C=C2\S/C(=N/c3ccc4c(C)cc(=O)oc4c3)N(CCO)C2=O)o1` , please.
8

What MIC value was documented for this molecule, `Cc1cc(=O)oc2cc(/N=C3/S/C(=C\c4ccc(C#N)cc4)C(=O)N3CCO)ccc12` ?
0.5

Any idea what MIC was measured for `Cc1cc(=O)oc2cc(/N=C3/S/C(=C\c4ccc(Cl)cc4Cl)C(=O)N3CCO)ccc12` ?
4
